Test system: GMK cells
Assay: Cytotoxicity observed microscopically in GMK cells (Test Example 1)
Type: cell-based, green monkey
Conditions: 10 µg/ml; GMK cells; in parentheses
reported.endpoint: cytotoxicity

For orientation, consider the following solved cases.
Entry `CCCCCCCCCCCCCCCCCC(=O)N1CCN(c2ccccc2Cl)CC1` — recorded cytotoxicity = -

Lookup result for `CCN1CCN(c2ccccc2Cl)CC1` ; measured cytotoxicity: -

Record `CS(=O)(=O)N1CCN(c2ccccc2Cl)CC1` , field cytotoxicity: -

The recorded cytotoxicity for `NS(=O)(=O)c1ccc(N2CCN(c3ccccc3Cl)CC2)cc1` is -

So for `CCCCCCCC(=O)N1CCN(c2ccccc2Cl)CC1` , the logged cytotoxicity turned out to be ±

Continuing:
Sample `CCCCC/C=C\C/C=C\CCCCCCCC(=O)N1CCN(c2ccccc2Cl)CC1` ; cytotoxicity observed: -

The compound `CCn1cc(C(=O)O)c(=O)c2cc(F)c(N3CCN(c4ccccc4Cl)CC3)cc21` showed cytotoxicity equal to ±

cytotoxicity reported for this compound `O=C(CN1CCCC1=O)N1CCN(c2ccccc2Cl)CC1` : -

// `CC(=O)Oc1ccccc1C(=O)N1CCN(c2ccccc2Cl)CC1` : cytotoxicity value = -

GET /value?item= `CC(=O)N1CCN(c2ccccc2Cl)CC1` &field=cytotoxicity returns -

Consider `O=C(c1ccccc1O)N1CCN(c2ccccc2Cl)CC1` . Its measured cytotoxicity is -
